# target.desc: T1, biotinylated native human ApoC3 (human, UniProt P02656 21-99, biotinylated (site not stated))
# T1 construct: also called biotinylated human ApoC3
# procedure.details: SPR, IgG1 over biotinylated ApoC3 on SA chip, pH 5.5
# Ka annotations
measurement.label: Ka (M⁻¹)

>>> endpoint_value("mAb8 (antibody, IgG1, V domains shown, Produced as full length IgG1 (kappa) in ExpiCHO-S cells; also called humanized anti-ApoC3 antibody mAb8) VH: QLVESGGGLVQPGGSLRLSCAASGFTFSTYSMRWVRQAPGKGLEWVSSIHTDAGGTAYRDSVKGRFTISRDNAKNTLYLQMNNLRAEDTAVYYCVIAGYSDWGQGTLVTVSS VL: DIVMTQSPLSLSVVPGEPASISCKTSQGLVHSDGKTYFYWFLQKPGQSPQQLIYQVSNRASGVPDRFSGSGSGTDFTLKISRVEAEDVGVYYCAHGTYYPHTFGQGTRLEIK")
"1.34e+09"
>>> endpoint_value("mAb2 (antibody, IgG1, V domains shown, Produced as full length IgG1 (kappa) in ExpiCHO-S cells; also called humanized anti-ApoC3 antibody mAb2) VH: QLVESGGGLVQPGGSLRLSCAASGFTFGTYSMRWVRQVPGKGLEWVSSIHTEGGGTAYRDSVKGRFTISRDNAKNTLYLQMNSLRAEDTAIYYCVIAGYSDWGQGTLVTVSS VL: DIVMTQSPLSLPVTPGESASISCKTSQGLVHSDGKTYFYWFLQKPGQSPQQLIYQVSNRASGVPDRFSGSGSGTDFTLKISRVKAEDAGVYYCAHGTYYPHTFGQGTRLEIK")
"3.54e+09"
>>> endpoint_value("mAb13 (antibody, IgG1, V domains shown, Produced as full length IgG1 (kappa) in ExpiCHO-S cells; CDR graft into the closest human germline frameworks; also called humanized anti-ApoC3 antibody mAb13; variant 13) VH: QLLESGGGLVQPGGSLRLSCAASGFTFSTYSMRWVRQVPGKGLEWVSSIHTEGGGTAYRDSVKGRFTISRDNSKNTLYLQMNSLRAEDTAVYYCVIAGYSDWGQGTLVTVSS VL: DIVMTQSPLSLPVTPGEPASISCKTSQGLVHSDGKTYFYWYLQKPGQSPQLLIYQVSNRASGVPDRFSGSGSGTDFTLKISRVEAEDVGVYYCAHGTYYPHTFGQGTRLEIK")
"1.8e+08"
